assayed_target: Bcl-2
Sequence (chain, as listed by the source): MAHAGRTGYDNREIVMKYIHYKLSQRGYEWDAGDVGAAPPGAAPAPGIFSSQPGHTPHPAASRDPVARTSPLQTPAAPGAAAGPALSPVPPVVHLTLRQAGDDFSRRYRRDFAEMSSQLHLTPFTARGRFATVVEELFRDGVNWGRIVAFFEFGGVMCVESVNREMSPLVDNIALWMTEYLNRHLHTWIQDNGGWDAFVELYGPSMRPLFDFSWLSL
assay_procedure: competition phage ELISA
reported_metric: IC50 (nM)
Please respond with the number in nM and leave the unit unwritten.

{"binder": "NLWAAARYGRELRRMSDEFVDSFKKG (M13 phage display: FLAG-26mer-GGGT-g3(249-406)) [Bad BH3 Q6A, phage-displayed]", "IC50 [nM]": 18}
{"binder": "NLWAAQRYGRELRRMSDEFVDSFAKG (M13 phage display: FLAG-26mer-GGGT-g3(249-406)) [Bad BH3 K24A, phage-displayed]", "IC50 [nM]": 14}
{"binder": "NLWAAQRYGRELRRMSDEFVDSFKKG (M13 phage display: FLAG-26mer-GGGT-g3(249-406); also called wtBad) [Bad BH3 wild type, phage-displayed]", "IC50 [nM]": 13}

**Q:** Assign IC50 to the following record: NLWAEQRYGRELRRMSDEFVDSFKKG (M13 phage display: FLAG-26mer-GGGT-g3(249-406)) [Bad BH3 A5E, phage-displayed]
**A:** 26

**Q:** Specify reported IC50 for the binder shown: NAWAAQRYGRELRRMSDEFVDSFKKG (M13 phage display: FLAG-26mer-GGGT-g3(249-406)) [Bad BH3 L2A, phage-displayed]
**A:** 7

**Q:** Given NLWEAQRYGRELRRMSDEFVDSFKKG (M13 phage display: FLAG-26mer-GGGT-g3(249-406)) [Bad BH3 A4E, phage-displayed] , respond with its IC50.
**A:** 10

**Q:** Please report IC50 for the following binder: NLWAAQRYGAELRRMSDEFVDSFKKG (M13 phage display: FLAG-26mer-GGGT-g3(249-406)) [Bad BH3 R10A, phage-displayed]
**A:** 14
